Sourced from patent US20220324969A1

Molecular target: CD33 (Sino Biological, Cat #12238-H08H) (UniProt P20138 18-259)
Sequence (P20138 18-259 limits assumed): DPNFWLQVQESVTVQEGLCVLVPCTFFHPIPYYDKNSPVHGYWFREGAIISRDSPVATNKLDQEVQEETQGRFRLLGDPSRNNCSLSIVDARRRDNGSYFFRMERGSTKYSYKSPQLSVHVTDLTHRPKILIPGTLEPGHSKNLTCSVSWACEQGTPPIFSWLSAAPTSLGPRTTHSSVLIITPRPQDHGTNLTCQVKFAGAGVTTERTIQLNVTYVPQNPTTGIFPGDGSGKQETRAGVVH
Test: BLI, IgG captured on anti-human Fc sensor, 50 nM CD33, pH 7.4 vs pH 5.4

# binder, binding result
data = [
    ("MYT1229 (antibody, V domains shown, IgG; IMGN779 VH variant #17 (D56H)) VH: QVQLQQPGAEVVKPGASVKMSCKASGYTFTSYYIHWIKQTPGQGLEWVGVIYPGNHDISYNQKFQGKATLTADKSSTTAYMQLSSLTSEDSAVYYCAREVRLRYFDVWGQGTTVTVSS VL: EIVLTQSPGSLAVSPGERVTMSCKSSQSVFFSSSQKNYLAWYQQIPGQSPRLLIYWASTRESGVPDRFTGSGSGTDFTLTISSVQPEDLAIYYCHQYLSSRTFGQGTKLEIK", "binds"),
    ("MYT1181 (antibody, V domains shown, IgG; gemtuzumab VH combination #20 (Y52H+Y54H+G57H)) VH: EVQLVQSGAEVKKPGSSVKVSCKASGYTITDSNIHWVRQAPGQSLEWIGYIHPHNGHTDYNQKFKNRATLTVDNPTNTAYMELSSLRSEDTDFYYCVNGNPWLAYWGQGTLVTVSS VL: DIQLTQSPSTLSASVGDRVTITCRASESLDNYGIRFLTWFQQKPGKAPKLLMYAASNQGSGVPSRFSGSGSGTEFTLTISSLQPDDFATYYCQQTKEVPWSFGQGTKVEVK", "binds"),
    ("MYT1221 (antibody, V domains shown, IgG; IMGN779 VH variant #9 (I34H)) VH: QVQLQQPGAEVVKPGASVKMSCKASGYTFTSYYHHWIKQTPGQGLEWVGVIYPGNDDISYNQKFQGKATLTADKSSTTAYMQLSSLTSEDSAVYYCAREVRLRYFDVWGQGTTVTVSS VL: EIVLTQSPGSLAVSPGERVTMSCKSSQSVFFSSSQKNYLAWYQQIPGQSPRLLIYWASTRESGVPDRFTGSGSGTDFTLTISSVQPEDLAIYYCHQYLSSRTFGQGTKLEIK", "binds"),
]
